- assay-protocol: binders of probe aFST on microarray, primary screen, stem cell growth factor project, biochemical, small-molecule microarray, fluorescence 635/667 (AID 1086);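 further: score merges 667 nm fluorescence with signal-to-noise of each printed compound spot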
- condition-parameters: higher = more signal
Parameter: composite z-score. Scope: all listed entries.
Answer with a bare number; do not write a unit.

1. C[C@]1(C(=O)NC2CC2)c2ccccc2C(=O)N(Cc2ccccc2)[C@H]1c1ccc(CO)cc1 : -0.346
2. C=CCOC(=O)[C@H]1[C@@H]2C(=O)O[C@@H](c3ccccc3)[C@@H](c3ccccc3)N2[C@@H](c2ccc(OCCOC(=O)[C@@H]3C[C@@H]4C(=O)N[C@@H](CCCCNC(C)=O)C(=O)N4[C@@H]3c3ccc(O)cc3)cc2)[C@]12C(=O)Nc1ccc(I)cc12 : 0.257
3. O=C1C[C@@](C(=O)NCCN2CCOCC2)(c2ccc([N+](=O)[O-])cc2)[C@@H](c2ccc(CO)cc2I)N1C1CCCCC1 : -0.0352

The compound listed as CCOC(=O)c1ccc(NC(=O)O[C@H]2[C@H](OC(=O)Nc3ccc4c(c3)OCO4)[C@H](OC(=O)Nc3ccc4c(c3)OCO4)[C@@H](OC)O[C@@H]2CO)cc1 shows composite z-score equal to 0.792

The compound listed as [N-]=[N+]=NCc1ccccc1C[C@]1(C(N)=O)N=C(c2ccc(OCCCO)cc2)O[C@H]1c1ccccc1 shows composite z-score equal to 1.56

The compound listed as COCCOC(=O)N1C(=O)[C@@]2(c3cc(C#CC4=CCCCC4)ccc31)[C@H](c1ccc(OCCO)cc1)N1[C@H](c3ccccc3)[C@H](c3ccccc3)OC(=O)[C@H]1[C@@H]2C(=O)N1CCN(c2ncccn2)CC1 shows composite z-score equal to 0.59

###

- assay-protocol: yeast growth modulation, basal conditions, primary screen, YJM789 clinical isolate, OD600, 24 h (AID 1089);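 further: growth of clinical yeast isolate S. cerevisiae YJM 789 seeded 1000 cells per well; test concentration not given here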
- condition-parameters: S. cerevisiae YJM789 growth, higher = more signal, called active from +8 up or from −8 down
Bucketed by reported z-score, buckets being low-valued = under -0.001, mid-valued = from -0.001 up to 0.8, high-valued = 0.8 and over

1) COCCCNC(=O)[C@@]1(Cc2ccccc2CN=[N+]=[N-])N=C(c2ccc(OCCCO)cc2)O[C@H]1c1ccccc1 : high-valued
2) CC(C)C[C@@H]1NC(=O)[C@@H]2C[C@H](C(=O)NCCCCCN)[C@H](c3ccc(O)cc3)N2C1=O : mid-valued
3) [N-]=[N+]=NCc1ccccc1C[C@@]1(C(=O)N2CCOCC2)N=C(c2ccc(OCCCO)cc2)O[C@@H]1c1ccccc1 : low-valued

# bin lookup: classify O[C@@H](Cc1ccccc1)[C@@H](/C=C/C1CC1)N(CC#Cc1ccccc1)Cc1cccc(Cl)c1 by its z-score
high-valued

# bin lookup: classify CC[C@H]1C2=C3C(CC[C@H]4C(OCc5ccc(F)cc5C(F)(F)F)OC[C@](C)([C@@H]34)N(C(=O)OC(C)(C)C)C2)C(COC)C1COC (stereo not given in full) by its z-score
mid-valued

# bin lookup: classify COCCOC(=O)N1C(=O)[C@@]2(c3cc(C#Cc4ccc(OC)cc4)ccc31)[C@H](C(=O)Nc1nc3ccccc3s1)[C@H]1C(=O)O[C@H](c3ccccc3)[C@H](c3ccccc3)N1[C@@H]2c1ccc(O)cc1 by its z-score
high-valued

# bin lookup: classify COc1ccc([Si](C)(C)[C@H]2[C@H](CCn3cc([C@H](O)c4ccccc4)nn3)O[C@@]3(C(=O)N(Cc4ccc(N5C(=O)c6cccc7cccc5c67)cc4)c4ccccc43)[C@@H]2C)cc1 by its z-score
mid-valued

# bin lookup: classify C=CC[C@]1(C(=O)NCCN2CCOCC2)N=C(c2ccc(OCCCO)cc2)O[C@H]1c1ccccc1CN=[N+]=[N-] by its z-score
low-valued

# bin lookup: classify C=CCN1Cc2ccccc2[C@H]2OC(c3ccc(OCCCO)cc3)=N[C@@]2(CC=C)C1=O by its z-score
low-valued

###

- target-under-test: NADPH oxidase 2 (Homo sapiens)
- assay-protocol: NOX2-dependent H2O2 signal modulators, primary screen, NOX inhibitor project, cell-based, HEK293-NOX2, PMA-stimulated, Amplex Red fluorescence (AID 1159); further: test concentration not given here
- condition-parameters: 45 min, higher = more signal, called active from +8 up or from −8 down
experimental-endpoint: z-score
Answer with a bare number; do not write a unit.

1. C=CCOC(=O)[C@H]1[C@@H]2C(=O)O[C@@H](c3ccccc3)[C@@H](c3ccccc3)N2[C@@H](c2ccc(OCCOC(=O)[C@H]3C[C@H]4C(=O)N[C@@H](CC(C)C)C(=O)N4[C@H]3c3cccc(OCCO)c3)cc2)[C@]12C(=O)Nc1ccc(I)cc12 : 1.35

The compound listed as CN(C)CCCCNC(=O)[C@@H]1C[C@@H]2C(=O)N[C@@H](Cc3ccccc3)C(=O)N2[C@@H]1c1cccc(OCCO)c1 shows z-score equal to 0.767

The compound listed as Cc1ccc(S[C@]2(C(=O)O)CC(=O)N(Cc3ccccc3Cl)[C@@H]2c2ccc(CO)cc2I)cc1 shows z-score equal to 3.66

The compound listed as CCOC(=O)C1CCCCN1 (stereo unspecified) shows z-score equal to 0.0494

The compound listed as COC(=O)[C@@]1(Cc2ccccc2)[C@H]2c3cc(C(=O)N(C)C)n(CCN4CNCC4=O)c3C[C@H]2CN1C(=O)c1ccccc1 shows z-score equal to 0.61

The compound listed as COC(=O)[C@@]1(Cc2ccccc2N=[N+]=[N-])N=C(c2ccc(OCCCO)cc2)O[C@H]1c1ccccc1N=[N+]=[N-] shows z-score equal to -1.58

###

- target-under-test: Torsin-1A (Homo sapiens)
- assay-protocol: small-molecule binders of mutant TOR1A in lysate, primary screen, cell lysate, small-molecule microarray, COS7 lysate, 635/667 nm fluorescence (AID 1150);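 further: score pools 667 nm emission and signal to noise measuring lysate protein binding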
- condition-parameters: COS7 hTOR1A mutant lysate, 635 nm fluorescence, higher = more signal
Rule: composite z-score under 0.3 gives no, otherwise yes.

1. CC=CC(O)C1C=CC2C(=O)N(c3ccccc3)C(=O)C2N1Nc1ccccc1F (centres undefined) : yes
2. CN(C)CCCCNC(=O)[C@@H]1C[C@@H]2C(=O)N[C@@H](Cc3ccccc3)C(=O)N2[C@@H]1c1cccc(OCCO)c1 : yes
3. COC(=O)[C@@]1(Cc2ccc(OC)cc2)[C@H]2c3cc(C(=O)N4CCCC4)n(Cc4cccc5ccccc45)c3C[C@H]2CN1C(=O)c1ccccc1 : yes
4. CCOC(=O)C[C@H]1[C@H](OC(=O)c2ccc(C(=O)c3ccccc3)cc2)[C@@H](NC(=O)Cc2ccc(OC)cc2)c2cc(OCCCO)ccc2N1C(=O)c1ccccc1 : yes
5. O=C1OCC=C[C@H]2OC34C=CCN(Cn5nnc6ccccc65)C(=O)[C@H]3N(CCCO)C(=O)[C@@H]4[C@@H]12 (some centres undefined) : no
6. [N-]=[N+]=NCc1ccccc1[C@H]1OC(c2ccc(OCCCO)cc2)=N[C@@]1(CCS(=O)(=O)c1ccccc1)C(=O)NCC(O)CO (some centres undefined) : yes
7. O=C1OCC=C[C@H]2OC34C=CCN(c5ccc(Cl)cc5)C(=O)[C@H]3N(CCO)C(=O)[C@@H]4[C@@H]12 (some centres undefined) : no
8. CCCCO[C@H]1C[C@H]2C(I)=C[C@@H]1C(=O)[C@]21CO1 : no

// next entry
Determine whether measured composite z-score meets or exceeds 0.3 for COCCOC(=O)N1C(=O)[C@@]2(c3cc(C#CCC(C(=O)OC)C(=O)OC)ccc31)[C@H](C(=O)N1CCc3cc(OC)c(OC)cc3C1)[C@H]1C(=O)O[C@H](c3ccccc3)[C@H](c3ccccc3)N1[C@@H]2c1ccc(OCCO)cc1
yes

###

- System: wheat germ agglutinin (Triticum aestivum), Alexa647-labelled
- assay-protocol: wheat germ agglutinin binders on compound microarrays, profiling panel, artefact control for SMM control-protein annotation, biochemical, small-molecule microarray, 635/667 nm fluorescence (AID 1140);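 further: score merges 667 nm feature emission with signal to noise over triplicate slides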
- condition-parameters: WGA-A647 binding, 635 nm fluorescence, higher = more signal
Parameter: composite z-score. Scope: all listed entries.
Answer with a bare number; do not write a unit.

Some molecules with known composite z-score results, for comparison:
1. CCCCC(=C=CC[C@@H](O)c1ccccc1OCCO)C[C@@H](O)COCc1ccccc1 : 0.0771
2. CCC(CC)C(O)C1C=CC2C(=O)N(c3ccccc3)C(=O)C2N1Nc1ccc(C(C)C)cc1 (centres undefined) : 1.08
3. CN1C(=O)C2C=CC(C(O)c3ccc(F)cc3)N(Nc3ccccc3)C2C1=O (centres undefined) : 0.0088

The molecule listed as COC(=O)c1nc2oc1CC[C@@H](CO)NC(=O)N(C)Cc1cnnn1C[C@H](Cc1ccccc1)NC2=O shows composite z-score equal to 1.03

###

Parameter: z-score. Scope: all listed entries.
- assay-protocol: E. coli growth modulation, two-sided OD650, primary screen, E. coli filamentation project, strain DRC41, 24 h (AID 1093);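 further: MC1000 strain lacking acrAB efflux and sulA so SOS filamentation is blocked; test concentration not given here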
- condition-parameters: OD650, 24 h, higher = more signal, called active from +8 up or from −8 down
Answer with a bare number; do not write a unit.

Some compounds with known z-score results, for comparison:
1. CC(C)N1C(=O)c2ccccc2[C@@H](C(=O)NC2CC2)[C@@H]1c1ccc(CO)cc1 : 0.141
2. COCCCNC(=O)[C@]1(CCS(=O)(=O)c2ccccc2)N=C(c2ccc(OCCCO)cc2)O[C@@H]1c1ccccc1N=[N+]=[N-] : 0.464
3. O=C(NCCCCCNC(=O)/C(Cc1ccccc1)=N/O)OCc1ccccc1 : 2.16
4. CCCCO[C@H]1C[C@H]2C(I)=C[C@@H]1C(=O)[C@]21CO1 : -1.25
5. COc1ccc([Si](C)(C)[C@@H]2[C@@H](CC(=O)N3Cc4ccccc4C[C@H]3CO)O[C@]3(C(=O)N(Cc4cccc(N5C(=O)c6cccc7cccc5c67)c4)c4ccccc43)[C@H]2C)cc1 : -0.342

The compound listed as [N-]=[N+]=NCc1ccccc1C[C@]1(C(N)=O)N=C(c2ccc(OCCCO)cc2)O[C@H]1c1ccccc1 shows z-score equal to 1.22

The compound listed as C=CCNC(=O)[C@H]1[C@@H]2C(=O)O[C@@H](c3ccccc3)[C@@H](c3ccccc3)N2[C@@H](c2ccc(O)cc2)[C@]12C(=O)Nc1ccc(C#CC3(O)CCCCCC3)cc12 shows z-score equal to -1.08

The compound listed as [N-]=[N+]=Nc1ccccc1[C@H]1OC(c2ccc(OCCCO)cc2)=N[C@@]1(CCS(=O)(=O)c1ccccc1)C(=O)NCCN1CCOCC1 shows z-score equal to 0.17

The compound listed as COCCOC(=O)N1C(=O)[C@@]2(c3cc(C#CCCO)ccc31)[C@H](C(=O)Nc1nc3ccccc3s1)[C@H]1C(=O)O[C@H](c3ccccc3)[C@H](c3ccccc3)N1[C@@H]2c1ccccc1OCCO shows z-score equal to -0.0236

The compound listed as COc1ccccc1CN1C(=O)c2ccccc2[C@](Cc2ccccc2I)(C(=O)NCC(F)(F)F)[C@@H]1c1ccc(CO)cc1 shows z-score equal to -1.13

The compound listed as CC[C@H]1C2=C3C(CC[C@H]4C(OCc5ccc(F)cc5C(F)(F)F)OC[C@](C)([C@@H]34)N(C(=O)OC(C)(C)C)C2)C(COC)C1COC (some centres not stated) shows z-score equal to -0.773

The compound listed as COc1cc2c(cc1OC)CN(C(=O)[C@@H]1[C@H]3C(=O)O[C@H](c4ccccc4)[C@H](c4ccccc4)N3[C@H](c3ccc(OCCO)cc3)[C@@]13C(=O)Nc1ccccc13)CC2 shows z-score equal to 0.761

The compound listed as CC(C)(C)OC(=O)CC[C@]1(C(=O)NCc2ccccc2)N=C(c2ccc(OCCCO)cc2)O[C@H]1c1ccccc1CN=[N+]=[N-] shows z-score equal to 0.868

The compound listed as C[N+](C)(C)CCCC[C@@H]1NC(=O)[C@H]2C[C@@H](C(=O)NCCCCCCN)[C@@H](c3ccc(O)cc3)N2C1=O shows z-score equal to 0.766

The compound listed as O=C1C2C=CC(C(O)c3ccc(F)cc3)N(n3cnnc3)C2C(=O)N1Cc1ccccc1 (configuration not stated) shows z-score equal to -0.997

The compound listed as CN(C)CCCNC(=O)[C@@]1(c2ccc([N+](=O)[O-])cc2)CC(=O)N(CC23CC4CC(CC(C4)C2)C3)[C@@H]1c1ccc(CO)cc1I shows z-score equal to -6.64
